Attribute measured: melting point

CCCCc1nc(Cl)c(COc2ccccn2)n1Cc1ccc(-c2ccccc2-c2nnn[nH]2)cc1
98 to 100 °C
CSc1nc(=O)n(C(C)(C)C)c(=O)[nH]1
112 to 115 °C
COc1cc2nc(N3CCN(C(=O)C4CC=CCC4)CC3)nc(N)c2cc1OC (centres undefined)
211 to 213 °C
COc1cccc2c1CCc1cnoc1-2
84 to 86 °C
CSc1nnc(-c2ccc3ccccc3c2)n1C
177 to 179 °C
CCc1cn(C[C@@H](C)O)c2ccc(F)c(Cl)c12
87 to 88 °C
COc1ccc(S(=O)(=O)Nc2ccccc2NC(=O)c2ccncc2)cc1
162 to 163 °C
COC(CNC1=Nc2ccc(Cl)cc2C(c2ccccc2)N1C)OC (centres undefined)
104 to 105 °C
C=CCOc1ccc(C[C@@H](NC(C)=O)C(=O)OC)cc1
90 °C
CCCCNc1cccnc1S(=O)(=O)NC(=O)Nc1nc(OC)cc(OC)n1
118 to 119 °C

The molecule "O=C(O)Cc1ccc(-c2ccc(C(F)(F)F)cc2)cc1" showed melting point equal to 158 to 160 °C

----------
Examples of compounds with documented melting point follow.

Worked cases, melting point given:
O=C1CNC(c2ccc([N+](=O)[O-])cc2)=NN1
284 to 286 °C
Cc1nc(C)c(Cl)c(NCc2nccc(OCCCCN3CCNCC3)c2C)n1
140 to 144 °C
CCNC(=O)n1nc(Oc2c(Cl)cc(C(F)(F)F)cc2Cl)cc1COC
106 to 108 °C
CC1=C(C(=O)N2CCCCC2)C(c2ccccc2[N+](=O)[O-])C(S(C)(=O)=O)=C(C)N1 (stereo not drawn)
275 to 276 °C
O=c1ccc2ccc(CC3CO3)cc2o1 (stereo not drawn)
110 to 112 °C
CS(=O)(=O)c1ccc(C(CC2CCCC2)C(=O)Nc2ccccn2)cc1S(C)(=O)=O (stereo not drawn)
107 to 110 °C

Proceeding to the next compound to report its melting point.
Item: "CCCCCOc1ccccc1C1=NNC(=O)CC1" | melting point: 50 to 52 °C

----------
Attribute measured: melting point

Take a look at these entries with their results.
CC1COCc2nc3c(N)nc4cc(C=CC(=O)N5CCOCC5)ccc4c3n21 (stereo unspecified)
> 250 °C
S=C=Nc1ccc(-c2nc(-c3cccnc3)no2)cc1
121 to 123 °C
CCOC(=O)C(=O)Nc1cc(Cl)c(Cl)cc1[N+](=O)[O-]
96 to 97 °C

Notebook: "Cn1ncc(C(=O)Nc2ccc(F)cc2Cl)c1N" , melting point read as 176 to 177 °C

----------
Listed here: items and their measured melting point.

Below are worked cases with known answers.
CCS(=O)(=O)NC1CCCCc2ccc(F)cc21 (stereo unspecified)
118 to 121 °C
O=C(Nc1nc(C(F)(F)C(F)(F)F)c(I)s1)c1cc(C(F)(F)F)cc(C(F)(F)F)c1
143 to 144 °C
CN1CCC(C2(O)c3ccccc3Oc3ccc(F)cc32)CC1 (stereo unspecified)
193 to 200 °C
O=c1c2cc(O)ccc2[nH]c2c([N+](=O)[O-])cc([N+](=O)[O-])c(Cl)c12
278 to 281 °C
N#CCc1cccc2c(-c3ccc([N+](=O)[O-])cc3)nccc12
219 °C

Now let's try a different one.
The measured melting point associated with "COc1cc(C2CCN(C)CC2)ccc1Nc1ncc2ccc(-c3cccc(S(=O)(=O)NC(C)(C)C)c3)n2n1" reads 189 to 198 °C

----------
Listing of entries alongside the reported melting point.

Study these solved cases before continuing.
CCC(=O)Nc1cccc2c1C(=O)N(C1(C)CCC(=O)NC1=O)C2=O (centres undefined)
222 to 224 °C
Cc1nc2cc(-n3cccc3)ccc2o1
115 to 121 °C
S=C=Nc1cccc2ccoc12
45 to 46 °C
N#Cc1c(Cl)ccc(F)c1Cl
69 to 71 °C

Sure, the documented melting point for O=P1(c2ccccc2)NCc2ccccc21 (centres undefined) is 177 to 180 °C

Value of measured melting point for the entry "C[C@@H](Nc1c(Nc2ccc(C#N)c(Cl)c2)c(=O)c1=O)C(C)(C)C" : > 300 °C

Noted for "CCOCc1nc2c(N)nc3ccccc3c2n1CCOCCNC(=O)c1ccccc1" : its melting point reads 154 to 156 °C

The compound identified as CC(C)CCCC(C)C1CCC2(C#N)C3C(O)CC4C(C)(C)C(OC(=O)c5ccccc5)CCC4(C)C3CCC12C (centres undefined) registered its melting point at 270 to 271 °C

response.value for CCOc1cc(Cc2cnc(N)nc2N)cc2c1OC(C)(C)C=C2C#CC(C)O (centres undefined) (field: melting point) = 218 to 219 °C

----------
The compounds listed here are annotated with their melting point.

Completed entries (count: 10):
CN1CCCCc2[nH]c3ccccc3c2CC1
128 to 131 °C
Cc1cccc2c(=O)[nH]c(CCCN(C)C)cc12
105 to 106 °C
O=C(NC(CO)CO)c1ccc2cc(C(=O)O)[nH]c2c1
240 to 245 °C
O=C(O)C12C3C4C5C(C1C53[N+](=O)[O-])C42[N+](=O)[O-] (stereo not drawn)
187 °C
CCCN(Cc1ccc(C(=O)N2CCN(c3ccccc3)CC2)cc1)C1CCc2ncsc2C1 (stereo not drawn)
70 °C
CCCCC(=O)OC1C=CC(OC(=O)CCCC)O1 (stereo not drawn)
30 to 35 °C
Cc1c(C(C)O)cc(C(C)C)c(-c2ccc(O)cc2)c1Cl (stereo not drawn)
220 to 222 °C
COc1cc2c(cc1O)CCN(Cc1ccc(OC)c(OC)c1OC)C2
65 to 66 °C
O=C1Nc2ccccc2N(C(=O)N2CCCC(CCN3CCCCC3)C2)c2ncccc21 (stereo not drawn)
168 to 169 °C
Ic1cccc(OCCCCCCOc2c(I)cc(I)cc2I)c1
65 to 66 °C

Entry "O=C1CC2(CCCC2)CC(=O)N1CCCCOc1cccc2c1SCCC2" , melting point reported as 69 °C

Query "CC(=O)Oc1cccc(C(=O)Nc2ccc3ccc(Cl)nc3n2)c1" yields melting point of 207 °C

compound "FC(Sc1nnc(-c2ccc(Cl)cc2)s1)=C(F)C(F)(F)F" , melting point observed: 69 to 70 °C

----------
Attribute measured: melting point

COc1cc(COc2nn(-c3ccccc3)cc2/C=C/c2nnc(C)[nH]2)ccc1OCc1nc(-c2ccco2)oc1C
165 to 166 °C
COc1ccc([C@@H]2CN(C)CC[C@@H]2NC(=O)c2cccc(C(F)(F)F)c2)cc1OC (relative stereo)
122 to 124 °C
CCc1nc2c(C)cc(C)nc2n1Cc1ccc(C2(C(=O)O)Cc3ccccc3C2)s1
243 to 244 °C
COC(=O)C1=C(C)NC(C)=C(C(=O)OC)C1c1ccc(OCC(=O)NCCO[N+](=O)[O-])c(OC)c1
149 to 150 °C

Please fill in: melting point reported for "O=c1[nH]c(-c2ccccc2)c(-c2ccccc2)o1" = 158 to 159 °C

The reported melting point of the compound "O=C1CCNc2ccccc2N1c1ccccc1" was 170 to 171 °C

Reported melting point for "CCC(C)(C)c1ccc(OCCCC(=O)Nc2ccc(OC)c(NC(=O)CC(=O)C3(C)COC(C)(C)OC3)c2)c(C(C)(C)CC)c1" was 128 to 130 °C

Lookup result for "COc1ccc(COC(=O)CC(=O)Oc2ccc3sc4nc(-c5ccc(OC)cc5)cn4c3c2)cc1" ; measured melting point: 158 to 160 °C

So for "COc1c(C(=O)c2ccc([N+](=O)[O-])cc2Cl)c(C)nn1C" , the logged melting point turned out to be 97 to 98 °C

melting point measured on O=CC1c2ccccc2C(C=O)c2c(Cl)cccc21 (stereo not drawn) = 144 to 146 °C

Summary for this compound, "CCCn1nc2c(N)nc3ccccc3c2c1CC1(O)CCOCC1" : melting point is 209 to 211 °C

"CCCCCCCNC(=O)N(C)c1cccc(-c2ccc(CCC(=O)O)cc2OCCC(C)C)c1" yielded melting point of 60 to 62 °C

Please fill in: melting point reported for Cn1cnnc1C(N)(c1ccc(C#N)cc1)c1ccc2c(c1)c(-c1cccc(Cl)c1)nc1nnnn12 (stereo not drawn) = 194 °C

----------
// reported melting point for each item listed

Some solved cases for reference:
COC(=O)c1ccc(N2C3CCC2CN(CC(=O)N2CC=C(c4cccc5ccsc45)CC2)C3)nc1
153 to 154 °C
Cc1ccc(C=CC(=O)NNC(=O)CCc2cc(C(C)(C)C)c(O)c(C(C)(C)C)c2)cc1
274 to 275 °C
COc1ccc(CN(C)CCCCCc2ccc(NC(=O)c3cccc4c(=O)c5ccccc5[nH]c34)cc2)cc1OC
110 °C
CON(C)C(=O)c1cc([N+](=O)[O-])c(F)cc1Cl
89 °C
Nc1nc2ccc(Cc3ccccc3)cc2s1
173 to 175 °C
CCOC(=O)c1c(C)nc(Cl)c([N+](=O)[O-])c1N
73 to 75 °C
Cc1nc(O)c(C(=O)O)cc1Cl
291 to 294 °C

Let's switch to this compound now.
The measured melting point associated with "CN(C)C(=O)c1cc(OCc2ccccc2)c2nc(C(F)(F)F)n(C)c2c1" reads 144 to 146 °C
